PROCEDURE_DETAILS: AUC (0 to infinity) in Sprague-Dawley rat at 4 mg/kg, ip
Assay type: ADME, organism-based
EXPERIMENTAL_CONDITIONS: in vivo
VALUE_KIND: AUC(0-inf) (ng·h/mL)
Write down the numeric answer in ng·h/mL and omit the unit.

Query: Read off the recorded AUC(0-inf) for COc1cc(Nc2cc(F)ccc2C(=O)NCCc2c[nH]c3c(F)ccc(F)c23)cc(OC)c1OC
Result: 1970

----------
PROCEDURE_DETAILS: Half life in Sprague-Dawley rat at 4 mg/kg, ip
Format: ADME, organism-based
EXPERIMENTAL_CONDITIONS: in vivo
VALUE_KIND: half-life (h)
Write down the numeric answer in h and omit the unit.

Query: Read off the recorded half-life for COc1cc(Nc2cc(F)ccc2C(=O)NCCc2c[nH]c3c(F)ccc(F)c23)cc(OC)c1OC
Result: 5.57
